# Tested on: HT-29
# test.description: NCI tumour cell line growth inhibition, 48 h
Calls of active or inactive are those of the source. Rule as the data show it: active = GI50 up to about 1.1 µM and inactive = higher.
recorded.metric: GI50

input: Return reported GI50; argument: CC(=S)NC=C(C(N)=O)C(N)=O
output: > 100 µM (inactive)

input: Return reported GI50; argument: O=C1C2C(C(=O)N1Cc1ccccc1)N(Cc1ccccc1)C(=O)N2Cc1ccccc1 (stereo not drawn)
output: > 100 µM (inactive)

input: Return reported GI50; argument: O=C1CC2(CCN(Cc3ccccc3)CC2)C(=O)N1N1CCCCC1
output: > 100 µM (inactive)

input: Return reported GI50; argument: COc1ccc(/C=C2\CCC(CCN(C)C)(C3=CCCC3)C2=O)cc1Br (stereo not drawn)
output: 2.59 µM (inactive)

input: Return reported GI50; argument: CCCN(CCC)C1=Nc2ccccc2-n2cnnc2C1
output: > 100 µM (inactive)

input: Return reported GI50; argument: CCS/C(=N\c1ccccc1)SC
output: > 100 µM (inactive)

input: Return reported GI50; argument: CC(=O)O[C@H]1[C@@H](N2CCCCC2)C[C@H]2[C@@H]3CC=C4C[C@@H](N5CCCC5)CC[C@]4(C)[C@H]3CC[C@@]21C
output: 15.3 µM (inactive)

input: Return reported GI50; argument: CCOc1ccc(NCC2CC/C(=C\c3ccccc3OC)C2=O)cc1 (stereo not drawn)
output: 3.3 µM (inactive)

Values were extracted from ChEMBL document CHEMBL1201862.
